Test system: marine bacteria strain S17
Test: disc inhibition assay, strain S17
Type: cell-based, Gordonia terrae
Details: Gordonia terrae, S17, 24 h; strain 17, 50 μg of compound per disc; read-out: zone of inhibition
Catalogue of zone of inhibition at 50 µg/disc values

molecule: CCCCC(CCCC)C(=O)N1CCCCC1
zone of inhibition at 50 µg/disc: 2 to 5 mm

molecule: C=CCCCCC(CCCC)C(=O)N1CCCCC1 (centres unmarked)
zone of inhibition at 50 µg/disc: 5 to 10 mm

molecule: CCCCC(C(=O)N1CCCCC1)c1ccccc1 (centres unmarked)
zone of inhibition at 50 µg/disc: 2 to 5 mm

molecule: O=C(C(c1ccccc1)c1ccccc1)N1CCCCC1
zone of inhibition at 50 µg/disc: 2 to 5 mm

molecule: C=CCCCCC(C(=O)N1CCCCC1)c1ccccc1 (centres unmarked)
zone of inhibition at 50 µg/disc: 2 to 5 mm

====

Consider the following molecules and their measured log10 LD50 readings.
System: Stage II nauplii of Balanus amphitrite
Assay: barnacle toxicity assay
Assay type: in vivo
Conditions: Table 3(a); concentration that caused 50% mortality, 22 to 24 hours, Stage II nauplii
observation.type: log10 LD50 (log10 of the value in µg/mL)

molecule: CN1CCN(C(=O)C(c2ccccc2)c2ccccc2)CC1 [Compound 4.2]
log10 LD50: 1.16
--
molecule: CN1CCC(O)(c2ccccc2)CC1 [Compound 4.4]
log10 LD50: 1.09
--
molecule: O=C(C(c1ccccc1)c1ccccc1)N1CCC(CCO)CC1 [Compound 9.2]
log10 LD50: 1.69
--
molecule: OC1(c2ccc(Cl)cc2)CCNCC1 [Compound 3.4]
log10 LD50: 0.92
--
molecule: CN(C)C(=O)C(CCN1CCC(O)(c2ccc(Cl)cc2)CC1)(c1ccccc1)c1ccccc1 [LOP, loperamide, reference compound]
log10 LD50: 0.19

====

System: marine bacteria strain S29
Experiment: disc inhibition assay, strain S29
Assay type: cell-based, Bacillus hwajinpoensis
Conditions: strain 29, 50 μg of compound per disc

compound: CN(C)C(=O)C(c1ccccc1)c1ccccc1 [Compound 3.1, diphenamid, reference compound]
measured.target: marine bacteria strain S29
zone of inhibition: −

compound: CN1CCC(O)(c2ccccc2)CC1
measured.target: marine bacteria strain S29
zone of inhibition: −

compound: CCCCC(CCCCC(O)CO)C(=O)N1CCCCC1 (stereo not drawn)
measured.target: marine bacteria strain S29
zone of inhibition: −

compound: O=C(Cc1ccccc1)N1CCC(O)(c2ccccc2)CC1
measured.target: marine bacteria strain S29
zone of inhibition: −

compound: CCCCCC(=O)N(C)C
measured.target: marine bacteria strain S29
zone of inhibition: −

compound: O=C(C(c1ccccc1)c1ccccc1)N1CCC(O)(c2ccccc2)CC1
measured.target: marine bacteria strain S29
zone of inhibition: −

compound: O=C(C(c1ccccc1)c1ccccc1)N1CCCCC1
measured.target: marine bacteria strain S29
zone of inhibition: −

compound: CN(C)C(=O)C(CCN1CCCCC1)(c1ccccc1)c1ccccc1
measured.target: marine bacteria strain S29
zone of inhibition: −

compound: O=C(C(c1ccccc1)c1ccccc1)N1CCC(O)CC1
measured.target: marine bacteria strain S29
zone of inhibition: −

====

System: marine bacteria strain S17
Experiment: disc inhibition assay, strain S17
Assay type: cell-based, Gordonia terrae
Conditions: Gordonia terrae, S17, 24 h
zone of inhibition at 50 µg/disc for assorted compounds
observation.type: zone of inhibition at 50 µg/disc

compound: CN(C)C(=O)C(CC[N+]1(O)CCC(O)(c2ccc(Cl)cc2)CC1)(c1ccccc1)c1ccccc1 (centres unmarked)
measured.target: marine bacteria strain S17
reported.value: 2 to 5 mm

compound: CN(C)C(=O)C(CCN1CCC(O)(c2ccc(Cl)cc2)CC1)(c1ccccc1)c1ccccc1 [LOP, loperamide, reference compound]
measured.target: marine bacteria strain S17
reported.value: 5 to 10 mm

compound: CC(=O)OC1(c2ccc(Cl)cc2)CCN(CCC(C(=O)N(C)C)(c2ccccc2)c2ccccc2)CC1
measured.target: marine bacteria strain S17
reported.value: 2 to 5 mm

compound: COC1(c2ccc(Cl)cc2)CC[N+](C)(CCC(C(=O)N(C)C)(c2ccccc2)c2ccccc2)CC1 (centres unmarked) [Compound 5.2, N,O-dimethyl Loperamide]
measured.target: marine bacteria strain S17
reported.value: 2 to 5 mm

compound: CN(C)C(=O)C(CC[N+]1(C)CCC(O)(c2ccc(Cl)cc2)CC1)(c1ccccc1)c1ccccc1 (centres unmarked)
measured.target: marine bacteria strain S17
reported.value: 2 to 5 mm

====

System: cyprids of Balanus amphitrite
Test: barnacle settlement assay
Format: in vivo
Conditions: 25 ug/ml, after 24 hours incubation, averaged over two trials
Measured percentage of cyprids that settled values are reported for all entries that follow.

compound: CCCCCCC(CCCC)C(=O)N1CCCCC1 (stereo not shown) [Compound 12.8]
units.text: %
percentage of cyprids that settled: 0
//
compound: CCCCCCCCCCC(CCCCCCCC)C(=O)N1CCCCC1 (stereo not shown) [Compound 12.10]
units.text: %
percentage of cyprids that settled: 17.88
//
compound: CCCCCCCCCCC(CCCC)C(=O)N1CCCCC1 (stereo not shown) [Compound 12.9]
units.text: %
percentage of cyprids that settled: 1.32
//
compound: CCCCC(CCCC)C(=O)N1CCCCC1 [Compound 12.2, 2-Butyl-1-(piperidin-1-yl)hexan-1-one]
units.text: %
percentage of cyprids that settled: 0
